- Experimental Protocol: cAMP Responsive Elements (CRE) small molecule agonists, cell-based qHTS assay: qHTS cell viability counter screen (AID 2060914);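 note: viability read after 3 h of compound exposure; nearly all actives have a fitted effect of over 50% in size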
- Experimental Setup: CRE-bla HEK293T viability, CellTiter-Glo luminescence, 5 h; series mostly up to 92.4 µM
Inconclusive results are not listed. Activity calls are given as the source filed them. Calls come from the whole dose curve; as a rule, active = well fitted cell-killing curve with a large enough effect in the repeat runs; inconclusive = weak or mixed curves, or effect the other way; inactive = flat fitted curve, though single readings scatter.
Quantity: activity change, negative = cytotoxicity

{"Molecule": "CCOC(=O)NNc1ccc(N(CC)CC(C)O)nn1 (stereo unspecified)", "activity change, negative = cytotoxicity": "inactive"}
{"Molecule": "O=C(O)CCc1nc2ccccc2[nH]1", "activity change, negative = cytotoxicity": "inactive"}
{"Molecule": "Nc1[nH]c(=O)ncc1F", "activity change, negative = cytotoxicity": "inactive"}
{"Molecule": "CCC(C)(CCCC(C)C)OC(C)=O (stereo unspecified)", "activity change, negative = cytotoxicity": "inactive"}
{"Molecule": "CCCC(=O)OC/C=C(\\C)CCC=C(C)C", "activity change, negative = cytotoxicity": "inactive"}

Please state, for each entry, its recorded activity change, negative = cytotoxicity.
1. CC(=O)c1ccc(OCC(=O)N2CCCCC2)cc1
2. CCO[Si](CC(C)C)(OCC)OCC
3. Cc1ccccc1N=O
4. Brc1ccc(Oc2ccc(Br)cc2)cc1
5. CCOC(=O)[C@H](CCc1ccccc1)N[C@H]1CS[C@H](c2cccs2)CN(CC(=O)O)C1=O
6. CCCC1O[C@@H]2C[C@H]3[C@@H]4CCC5=CC(=O)C=C[C@]5(C)[C@H]4[C@@H](O)C[C@]3(C)[C@]2(C(=O)CO)O1 (stereo partly specified)
7. CCCC(=O)C(C)=O

["inactive", "inactive", "inactive", "inactive", "inactive", "inactive", "inactive"]

Please state, for each entry, its recorded activity change, negative = cytotoxicity.
1. Oc1ccc(C(O)CNCCCCCCNCC(O)c2ccc(O)c(O)c2)cc1O (stereo unspecified)
2. O=C(OCC1CO1)C1CCCCC1C(=O)OCC1CO1 (stereo unspecified)
3. CCCCN1C(=O)[C@@H]([C@H](O)C2CCCCC2)NC(=O)C12CCN(Cc1ccc(Oc3ccc(C(=O)O)cc3)cc1)CC2
4. O=C(O)c1ccc(C(=O)O)cc1
5. O=C1c2ccccc2C(=O)C1c1ccccc1
6. O=C(O)c1cccnc1
7. COc1ccc(-c2cc(=S)ss2)cc1
8. O=C(O)c1cc(Cl)cc(Cl)c1

inactive
inactive
inactive
inactive
inactive
inactive
inactive
inactive

Please state, for each entry, its recorded activity change, negative = cytotoxicity.
1. CCC1OCC(COc2ccc(Oc3ccccc3)cc2)O1 (stereo unspecified)
2. CC(C)(C)NSc1nc2ccccc2s1
3. Cc1c(C(=O)O)c(O)cc2c1C(=O)c1c(O)c([C@@H]3O[C@H](CO)[C@@H](O)[C@H](O)[C@H]3O)c(O)c(O)c1C2=O
4. O=S(=O)(O)c1ccc(Cl)cc1

inactive
inactive
inactive
inactive

Please state, for each entry, its recorded activity change, negative = cytotoxicity.
1. Nc1ccc(S(=O)(=O)O)cc1
2. Cc1cc(CCCOc2c(C)cc(-c3noc(C(F)(F)F)n3)cc2C)on1

1. inactive
2. inactive
